Experiment: AUC (0 to infinity) Cynomolgus monkey at 0.4 mg/kg, iv
Assay type: ADME, organism-based, Macaca fascicularis
Parameters: dose 0.4 mg/kg, route iv
Details: in vivo
property-label: AUC(0-inf) (µM·h)
Give bare numbers, in µM·h.

Req: For the compound COCCCOc1cc2c(cc1COC)-c1cc(=O)c(C(=O)O)cn1N1[C@@H]2CCC1(C)C , give its reported AUC(0-inf).
Resp: 5.93

* * *

Test: Half life in Cynomolgus monkey at 0.4 mg/kg, iv
Format: ADME, organism-based, Macaca fascicularis
Conditions: in vivo
property-label: half-life (h)
Numbers only, in h.

Req: For the molecule COCCCOc1cc2c(cc1COC)-c1cc(=O)c(C(=O)O)cn1N1[C@@H]2CCC1(C)C , give its reported half-life.
Resp: 6.7
